List of EC50 values.
tested on: HCV 1b_Huh-Luc/Neo-ET cell line persistently expressing a bicistronic genotype 1b replicon in Huh 7 cells; assay: HCV replicon assay (luciferase readout, 72 h); format: cell-based, HCV genotype 1b; conditions: Hepatitis C virus, Huh-7, 72 h, read-out: Inhibition of HCV genotype 1b
measurementKind: EC50

>>> endpointvalue("COC(=O)N[C@H](C(=O)N1CCC[C@H]1c1ncc(-c2ccc(C#Cc3ccc4nc([C@@H]5CCCN5C(=O)[C@@H](NC(=O)OC)C(C)C)[nH]c4c3)nc2)[nH]1)C(C)C")
"< 1 nM"
>>> endpointvalue("CS(=O)(=O)N[C@@H](C(=O)N1CCC[C@H]1c1ncc(-c2ccc(C#Cc3ccc(-c4cnc([C@@H]5CCCN5C(=O)[C@@H](c5ccccc5)N5CCCC5)[nH]4)cc3)cc2)[nH]1)c1ccccc1")
"< 1 nM"
>>> endpointvalue("COC(=O)N[C@@H](C(=O)N1CCC[C@H]1c1ncc(-c2ccc(C#Cc3ccc(-c4cnc([C@@H]5CCCN5C(=O)[C@H](NC(=O)N5CCC(C)(O)CC5)c5ccccc5)[nH]4)cc3)cc2)[nH]1)c1ccccc1")
"< 1 nM"
>>> endpointvalue("C[C@H](NC(=O)[C@@H]1CCCN1C(=O)[C@H](NC(=O)OC(C)(C)C)c1ccccc1)c1ccc(C#Cc2cnc([C@@H]3CCCN3C(=O)[C@H](NC(=O)OC(C)(C)C)c3ccccc3)[nH]2)cc1")
"10 to 999 nM"
>>> endpointvalue("COC(=O)N[C@H](C(=O)N1CCC[C@H]1c1ncc(-c2cccc3c(C#Cc4ccc5nc([C@@H]6CCCN6C(=O)[C@@H](NC(=O)OC)C(C)C)[nH]c5c4)cccc23)[nH]1)C(C)C")
"< 1 nM"
